Catalogue of compounds with associated Ki
Biological target: Mitogen-activated protein kinase 1 (Homo sapiens, UniProt P28482)
Sequence (P28482 whole entry): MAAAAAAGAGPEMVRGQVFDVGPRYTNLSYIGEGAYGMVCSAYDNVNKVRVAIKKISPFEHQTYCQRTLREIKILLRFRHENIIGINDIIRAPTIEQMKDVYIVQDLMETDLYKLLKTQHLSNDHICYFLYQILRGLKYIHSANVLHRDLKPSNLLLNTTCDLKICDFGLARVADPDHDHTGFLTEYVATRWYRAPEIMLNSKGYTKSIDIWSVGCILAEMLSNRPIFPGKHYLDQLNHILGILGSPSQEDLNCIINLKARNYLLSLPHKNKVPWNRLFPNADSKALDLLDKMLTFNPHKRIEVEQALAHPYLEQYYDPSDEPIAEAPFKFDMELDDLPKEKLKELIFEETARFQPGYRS
Assay: Inhibition of ERK2 (unknown origin) using Ets-1 as substrate measured after 30 mins in presence of [gamma32P]ATP by liquid scintillation counting method
measured quantity: Ki (µM)

[
  {
    "mol smiles": "COC(=O)c1ccc2c(c1)/C(=C(/Nc1ccc(N(C)C(=O)CN3CCN(C)CC3)cc1)c1ccccc1)C(=O)N2",
    "measured quantity": "Ki",
    "measured": 3
  },
  {
    "mol smiles": "CN1CCN(CC(=O)N(C)c2ccc(N/C(=C3\\C(=O)Nc4ccc(C(=O)O)cc43)c3ccccc3)cc2)CC1",
    "measured quantity": "Ki",
    "measured": 19
  }
]
